Subject Of Test: HLA-A*23:01
Method Description: IEDB peptide-MHC binding, purified MHC/competitive/radioactivity; filed as Kd, often an IC50 or EC50 that approximates it; bounds were set here for any values at or beyond the usual limits of such assays
Experimental Context: source organism: Dengue virus 1 Singapore/S275/1990
Value Type: pKd
Would you please state pKd, meaning minus log10 of the concentration in mol/L, as a bare number?

-- ask Using the record for VYPLSIPATL , state its measured pKd.
-- reply 7.82

----------
Subject Of Test: HLA-A*30:02
Method Description: IEDB peptide-MHC binding, purified MHC/competitive/radioactivity; filed as Kd, often an IC50 or EC50 that approximates it; bounds were set here for any values at or beyond the usual limits of such assays
Experimental Context: source organism: Lassa virus Josiah
Value Type: pKd
Would you please state pKd, meaning minus log10 of the concentration in mol/L, as a bare number?

-- ask Using the record for VFRTSTPRVV , state its measured pKd.
-- reply 5.20
